- measurementNotes: Plasma concentration in AKR/J mouse at 1 mg/kg measured after 4 hrs
- Assay type: ADME, organism-based
- Design: dose 1 mg/kg
metric: concentration at 4 h (ng/mL)

1) O=C(O)c1cnc(N2CCC3(CC2)CCN(Cc2cccc(C(F)(F)F)c2)c2ccccc2O3)s1
0.64

###

- systemTested: Acyl-CoA desaturase 1 (Rattus norvegicus)
- Sequence (P07308 whole entry): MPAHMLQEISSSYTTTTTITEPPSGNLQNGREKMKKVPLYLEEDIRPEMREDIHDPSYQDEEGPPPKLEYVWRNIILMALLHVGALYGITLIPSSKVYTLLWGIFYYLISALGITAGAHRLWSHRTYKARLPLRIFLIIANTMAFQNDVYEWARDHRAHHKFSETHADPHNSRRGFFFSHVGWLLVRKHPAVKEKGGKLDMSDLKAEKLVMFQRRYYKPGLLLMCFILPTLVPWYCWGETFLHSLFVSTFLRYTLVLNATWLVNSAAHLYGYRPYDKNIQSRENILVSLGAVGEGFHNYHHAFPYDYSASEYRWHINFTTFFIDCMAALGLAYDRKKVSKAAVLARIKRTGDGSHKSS
pIC50: −log10 of the molar value.
Threshold check on pIC50: at or above 8 gives Satisfied, strictly below gives Not satisfied.

1) CC(C)(C)c1ccc(CN2CCC3(CCN(C(=O)CNC(=O)c4ccco4)CC3)Oc3ccccc32)cc1
Not satisfied
2) CC(=O)NCC(=O)N1CCC2(CC1)CCN(Cc1cccc(C(F)(F)F)c1)c1ccccc1O2
Not satisfied
3) CNC(=O)c1cnc(N2CCC3(CC2)CCN(Cc2ccc(C(C)(C)C)cc2)c2ccccc2O3)s1
Satisfied
4) CCc1ccc(CN2CCC3(CCN(C(=O)CNC(C)=O)CC3)Oc3ccccc32)cc1
Not satisfied

###

Below: a set of entries, each annotated with reported concentration at 6 h.
- measurementNotes: Drug level in liver in rat at 10 mg/kg measured after 6 hrs
- Type: ADME, organism-based
- Set-up: dose 10 mg/kg
- particulars: read-out: Drug uptake
metric: concentration at 6 h

1) CCc1ccc(CN2CCC3(CCN(C(=O)CNC(C)=O)CC3)Oc3ccccc32)cc1
< 100 ng/g
2) O=C(NCCC1CC1)c1ccc(N2CCC3(CC2)CCN(Cc2cccc(C(F)(F)F)c2)c2ccccc2O3)nc1
< 10 ng/g
3) NC(=O)c1cnc(N2CCC3(CC2)CCN(Cc2cccc(C(F)(F)F)c2)c2ccccc2O3)s1
< 10 ng/g
4) O=C(NCCC1CC1)c1ccc(N2CCC3(CC2)CCN(Cc2cccc(C(F)(F)F)c2)c2ccccc2O3)nn1
< 10 ng/g
